target or system: human C-terminal DNMT3A (a.a. 623-908) (Homo sapiens)
Sequence (Q9Y6K1 627-912): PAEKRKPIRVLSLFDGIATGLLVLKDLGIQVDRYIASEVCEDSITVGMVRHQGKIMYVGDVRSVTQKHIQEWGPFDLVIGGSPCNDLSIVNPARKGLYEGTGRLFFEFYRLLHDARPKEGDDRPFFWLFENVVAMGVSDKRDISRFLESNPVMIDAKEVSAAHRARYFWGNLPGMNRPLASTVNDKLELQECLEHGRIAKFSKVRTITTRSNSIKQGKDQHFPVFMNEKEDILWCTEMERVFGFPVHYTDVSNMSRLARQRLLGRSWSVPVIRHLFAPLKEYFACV
run description: DNMT3A restriction-based fluorescence enzyme inhibition assay
Assay type: biochemical
test settings: read-out: Inhibition [%] of DNMT3A catalytic activity
quantity name: inhibition at 20 µM (%)
Express the result in % but write the number alone.

smiles input | target or system | unit abbreviation | inhibition at 20 µM
Cc1cc(Nc2ccc(NC(=O)c3ccc(Nc4ncnc5nc[nH]c45)cc3)cc2)nc(N)n1 | human C-terminal DNMT3A (a.a. 623-908) (Homo sapiens) | % | 3
CNc1ccc(C(=O)Nc2ccc(Nc3cc(C)nc(N)n3)cc2)cc1 | human C-terminal DNMT3A (a.a. 623-908) (Homo sapiens) | % | 0
Cc1cc(Nc2ccc(NC(=O)c3ccc([N+](=O)[O-])cc3)cc2)nc(N)n1 | human C-terminal DNMT3A (a.a. 623-908) (Homo sapiens) | % | 1

Query block: // query inhibition at 20 µM value for entry Cc1cc(Nc2ccc(NC(=O)c3ccc(N)cc3)cc2)nc(N)n1
Result block: 0

Values compiled from paper PMC4506529.
